# Test system: Ruminococcus gnavus DSM 108212
# ASSAY SUMMARY: growth (OD595) fold change vs plate DMSO controls (fold change (ratio)); higher = more growth
# CONDITION: incubation time: 27 h, anaerobic, 37 °C
Where a name gives a salt, the structure may show the parent alone.
Listing: growth of selected molecules
Write the number on its own, no unit after it.

Reference set, count: 5
[
  {
    "MOLECULE": "CN(C)C(=O)Nc1ccc(Cl)c(Cl)c1 (20 µM)",
    "SYSTEM NAME": "Ruminococcus gnavus DSM 108212",
    "VALUE": 1.08
  },
  {
    "MOLECULE": "NNc1nncc2ccccc12 [Hydralazine hydrochloride] (20 µM)",
    "SYSTEM NAME": "Ruminococcus gnavus DSM 108212",
    "VALUE": 0.792
  },
  {
    "MOLECULE": "C[C@@H](O)[C@H]1C(=O)N2C(C(=O)O)=C(S[C@@H]3CN[C@H](C(=O)N(C)C)C3)[C@H](C)[C@H]12 [Meropenem] (20 µM)",
    "SYSTEM NAME": "Ruminococcus gnavus DSM 108212",
    "VALUE": 0
  },
  {
    "MOLECULE": "N[C@@H](Cc1cc(I)c(Oc2ccc(O)c(I)c2)c(I)c1)C(=O)O [Liothyronine] (20 µM)",
    "SYSTEM NAME": "Ruminococcus gnavus DSM 108212",
    "VALUE": 1.09
  },
  {
    "MOLECULE": "C[C@@H]1CCO[C@H]2Cn3cc(C(=O)NCc4ccc(F)cc4F)c(=O)c(O)c3C(=O)N12 [Dolutegravir] (20 µM)",
    "SYSTEM NAME": "Ruminococcus gnavus DSM 108212",
    "VALUE": 0.891
  }
]

Quick check: growth of COc1cc(C(=O)NCc2ccc(OCCN(C)C)cc2)cc(OC)c1OC [Trimethobenzamide hydrochloride] (20 µM) ?
1.04

Same for CCCCOCCOCCOCc1cc2c(cc1CCC)OCO2 [Piperonyl butoxide] (20 µM)
1.06

Same for N=c1nc(N2CCCCC2)cc(N)n1O [Minoxidil] (20 µM)
0.722

Same for CC[C@@H](CO)NCCN[C@@H](CC)CO [Ethambutol dihydrochloride] (20 µM)
0.965

Same for COc1c(Cl)ccc(Cl)c1C(=O)O (20 µM)
1.19

Same for O=C1CC2(CCCC2)CC(=O)N1CCCCN1CCN(c2ncccn2)CC1 [Buspirone hydrochloride] (20 µM)
0.992

Same for CC=CC(=O)N(CC)c1ccccc1C [Crotamiton] (20 µM)
1.07

Same for Oc1ccc(OCc2ccccc2)cc1 [Monobenzone] (20 µM)
1.03

Same for CN1CCCN(C(c2ccccc2)c2ccc(Cl)cc2)CC1 (stereo not drawn) [Homochlorcyclizine dihydrochloride] (20 µM)
0.861

Same for CC(C(=O)O)c1ccc2c(c1)[nH]c1ccc(Cl)cc12 (stereo not drawn) [Carprofen] (20 µM)
1.1

Same for OC[C@@H](O)[C@@H](O[C@@H]1O[C@H](CO)[C@H](O)[C@H](O)[C@H]1O)[C@H](O)[C@@H](O)CO [Lactitol] (50 µM)
0.988

Same for Cc1cccc(C)c1OCC(C)N (stereo not drawn) [Mexiletine hydrochloride] (20 µM)
0.936

Same for CCc1ccc(CCOc2ccc(CC3SC(=O)NC3=O)cc2)nc1 (stereo not drawn) [Pioglitazone] (20 µM)
0.816

Reference source: the supplement of paper PMC12494721
